EXPERIMENTAL_PROTOCOL: Neurotoxicity in F-1 albino mouse at 30 mg/kg, ip after 0.5 hrs by rotarod test
Type: toxicity, organism-based
REPORTED_CONDITIONS: in vivo
MEASURE: Activity

• O=C1C=C(NCc2cc(F)ccc2F)CC(C(F)(F)F)C1 (centres undefined) = Non-Toxic
• O=C1C=C(NCc2cc(C(F)(F)F)cc(C(F)(F)F)c2)CC(C(F)(F)F)C1 (centres undefined) = Non-Toxic
• O=C1C=C(NCc2ccc(F)c(C(F)(F)F)c2)CC(C(F)(F)F)C1 (centres undefined) = Non-Toxic
• O=C1C=C(NCc2ccc(Br)cc2)CC(C(F)(F)F)C1 (centres undefined) = Non-Toxic
• O=C1C=C(Nc2ccc(Cl)cc2)CC(C(F)(F)F)C1 (centres undefined) = Non-Toxic
• O=C1C=C(NCc2cccc(OC(F)(F)F)c2)CC(C(F)(F)F)C1 (centres undefined) = Non-Toxic
• O=C1C=C(NCc2cccc(C(F)(F)F)c2)CC(C(F)(F)F)C1 (centres undefined) = Non-Toxic
• COc1ccc(CNC2=CC(=O)CC(C(F)(F)F)C2)cc1 (centres undefined) = Non-Toxic

I'd like to know its Activity. The compound in question is O=C1C=C(Nc2ccc(Br)cc2C(=O)O)CC(C(F)(F)F)C1 (centres undefined)
Non-Toxic
